The reported measurements were obtained from ChEMBL document CHEMBL1125058.

Assay: Compound was evaluated for the spectral dissociation constant
Type: ADME
Conditions: read-out: Ks
pKd: −log10 of the molar value.

[
  {
    "Compound": "CCCCCCCCN1C(=O)CCC(CC)(c2ccncc2)C1=O (stereo unspecified)",
    "pKd": 6.29
  }
]
